- measurement_target: human plasma kallikrein (Homo sapiens (Human), UniProt P03952)
- Sequence (P03952 391-638): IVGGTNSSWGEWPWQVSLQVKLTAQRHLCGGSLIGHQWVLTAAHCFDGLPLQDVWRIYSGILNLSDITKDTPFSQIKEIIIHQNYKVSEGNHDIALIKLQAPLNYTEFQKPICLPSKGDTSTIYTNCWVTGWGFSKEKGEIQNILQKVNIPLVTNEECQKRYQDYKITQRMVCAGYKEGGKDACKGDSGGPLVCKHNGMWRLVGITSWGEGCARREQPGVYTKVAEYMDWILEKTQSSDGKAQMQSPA
- Sequence (P03952 20-390 partner): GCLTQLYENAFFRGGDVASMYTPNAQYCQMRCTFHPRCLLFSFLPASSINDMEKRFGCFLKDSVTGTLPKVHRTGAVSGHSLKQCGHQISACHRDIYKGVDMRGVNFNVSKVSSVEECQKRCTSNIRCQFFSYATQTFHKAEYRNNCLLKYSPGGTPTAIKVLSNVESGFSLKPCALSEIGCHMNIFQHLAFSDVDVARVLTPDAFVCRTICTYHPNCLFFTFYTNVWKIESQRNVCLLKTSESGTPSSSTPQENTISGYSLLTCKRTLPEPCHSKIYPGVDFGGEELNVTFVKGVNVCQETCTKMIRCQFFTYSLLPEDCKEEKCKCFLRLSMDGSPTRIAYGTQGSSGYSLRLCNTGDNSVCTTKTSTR
- method_summary: Determination of the plasma kallikrein activity (fluorogenic peptide substrate)
- test_settings: plasma kallikrein from Kordia, substrate H-Pro-Phe-Arg-AMC, 30 min at 22° C.
pIC50: −log10 of the molar value.

{"columns": ["molecule", "pIC50"],
 "data": [
  ["COCCC(C(=O)Nc1ccn2ncc(C(=O)NCCO)c2c1)n1cc(OC)c(-c2cc(Cl)ccc2C#N)cc1=O (racemic)", 8.42],
  ["COCCCNC(=O)c1cnn2ccc(NC(=O)C(CCOC)n3cc(OC)c(-c4cc(Cl)ccc4C#N)cc3=O)cc12 (racemic)", 8.52],
  ["CCC(C(=O)Nc1ccn2ncc(C(=O)O)c2c1)n1cc(OC)c(-c2cc(Cl)ccc2C#N)cc1=O (racemic)", 8.30],
  ["CCCNC(=O)c1cnn2ccc(NC(=O)C(CCOC)n3cc(OC)c(-c4cc(Cl)ccc4C#N)cc3=O)cc12 (racemic)", 8.19],
  ["COCCC(C(=O)Nc1ccn2ncc(C(=O)NCCC(F)(F)F)c2c1)n1cc(OC)c(-c2cc(Cl)ccc2C#N)cc1=O (racemic)", 8.18],
  ["COCCC(C(=O)Nc1ccn2ncc(C(=O)NCCOC(F)(F)F)c2c1)n1cc(OC)c(-c2cc(Cl)ccc2C#N)cc1=O (racemic)", 8.02],
  ["COCCC(C(=O)Nc1ccn2ncc(C(=O)NCC(F)(F)F)c2c1)n1cc(OC)c(-c2cc(Cl)ccc2C#N)cc1=O (racemic)", 8.30],
  ["COCCNC(=O)c1cnn2ccc(NC(=O)C(CCOC)n3cc(OC)c(-c4cc(Cl)ccc4C#N)cc3=O)cc12 (racemic)", 8.42],
  ["COCCC(C(=O)Nc1ccn2ncc(C(=O)O)c2c1)n1cc(OC)c(-c2cc(Cl)ccc2C#N)cc1=O (racemic)", 8.60],
  ["COCCC(C(=O)Nc1ccn2ncc(C(=O)NCCCO)c2c1)n1cc(OC)c(-c2cc(Cl)ccc2C#N)cc1=O (racemic)", 8.28],
  ["COCCC(C(=O)Nc1ccn2ncc(C(=O)N(C)C)c2c1)n1cc(OC)c(-c2cc(Cl)ccc2C#N)cc1=O (racemic)", 7.74]
]}

Where do these numbers come from? They come from patent US10077265B2.
